Data origin, for the record: patent US20250282794A1

The reader will find reported IC50 values listed item by item below.
Molecular target: recombinant full length HPK-1 enzyme (Homo sapiens (Human), UniProt Q92918)
Sequence (Q92918 whole entry, species assumed): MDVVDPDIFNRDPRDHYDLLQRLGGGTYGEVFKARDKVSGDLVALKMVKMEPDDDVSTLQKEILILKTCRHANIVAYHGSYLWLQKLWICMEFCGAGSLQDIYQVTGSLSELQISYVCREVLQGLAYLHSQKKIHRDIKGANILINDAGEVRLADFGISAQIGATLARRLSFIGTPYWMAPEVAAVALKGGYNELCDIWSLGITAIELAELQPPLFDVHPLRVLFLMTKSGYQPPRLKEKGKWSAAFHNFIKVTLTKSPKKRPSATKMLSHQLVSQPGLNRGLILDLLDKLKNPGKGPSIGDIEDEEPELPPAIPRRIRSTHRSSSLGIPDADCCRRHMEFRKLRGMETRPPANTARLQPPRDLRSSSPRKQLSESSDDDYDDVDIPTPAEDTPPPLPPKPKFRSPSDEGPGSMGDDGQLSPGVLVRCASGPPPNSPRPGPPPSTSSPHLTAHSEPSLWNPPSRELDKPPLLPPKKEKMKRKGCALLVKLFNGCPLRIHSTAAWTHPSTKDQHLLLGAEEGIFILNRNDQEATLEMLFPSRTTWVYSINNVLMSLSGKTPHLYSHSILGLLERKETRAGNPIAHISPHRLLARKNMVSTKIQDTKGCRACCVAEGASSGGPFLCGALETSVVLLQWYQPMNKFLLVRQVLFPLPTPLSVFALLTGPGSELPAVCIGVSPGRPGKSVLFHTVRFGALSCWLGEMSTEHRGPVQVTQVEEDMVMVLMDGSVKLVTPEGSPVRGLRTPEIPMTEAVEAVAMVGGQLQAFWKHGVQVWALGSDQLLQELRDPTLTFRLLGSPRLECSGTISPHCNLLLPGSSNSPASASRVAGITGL
Experiment: HPK-1 biochemical enzyme assay (ADP-Glo kinase inhibition)
Conditions: recombinant full length HPK-1 6.8 nM, 10 μM ATP, 12.5 μM MBP, 30 mins at 25° C.

> print(dat)
                                   compound  experimental.endpoint    data.value
1  Cc1c(Nc2cc[nH]c(=O)c2C(=O)Nc2ccc(N3CCN4C(=O)N(C)CC4C3)cc2)cnc2c1NCCO2 (stereo not shown) [Example 377]                   IC50       ≤ 10 nM
2  Cc1c(Nc2cc[nH]c(=O)c2C(=O)Nc2ccc(N3CCN4CCCC4C3)cc2)cnc2c1NCC(C)O2 (stereo not shown) [Example 201]                   IC50  10 to 100 nM

Incoming: Param request: IC50 | system recombinant full length HPK-1 enzyme (Homo sapiens (Human), UniProt Q92918) | item Cc1c(Nc2cc[nH]c(=O)c2C(=O)Nc2ccc(N3CCN4C(=O)CCCC4C3)cc2)cnc2c1NCCO2 (stereo not shown) [Example 374]
Outgoing: 10 to 100 nM

Incoming: Param request: IC50 | system recombinant full length HPK-1 enzyme (Homo sapiens (Human), UniProt Q92918) | item Cc1c(Nc2cc[nH]c(=O)c2C(=O)Nc2ccc(N3CCN(C(=O)C4CC(C)(C)C4)CC3)cc2)cnc2c1NCCO2 [Example 304]
Outgoing: ≤ 10 nM

Incoming: Param request: IC50 | system recombinant full length HPK-1 enzyme (Homo sapiens (Human), UniProt Q92918) | item Cc1c(Nc2cc[nH]c(=O)c2C(=O)Nc2ccc(N3CCN(CC(C)C)CC3)cc2)cnc2c1NCCO2 [Example 370]
Outgoing: ≤ 10 nM

Incoming: Param request: IC50 | system recombinant full length HPK-1 enzyme (Homo sapiens (Human), UniProt Q92918) | item COCCN1CCN(c2ccc(NC(=O)c3c(Nc4cnc5c(c4C)NCCO5)cc[nH]c3=O)cc2)C[C@H]1C [Example 348]
Outgoing: ≤ 10 nM

Incoming: Param request: IC50 | system recombinant full length HPK-1 enzyme (Homo sapiens (Human), UniProt Q92918) | item Cc1c(Nc2cc[nH]c(=O)c2C(=O)Nc2ccc(N3CCN(C#N)CC3)cc2)cnc2c1NCCO2 [Example 352]
Outgoing: 10 to 100 nM

====

Molecular target: recombinant full length HPK-1 enzyme (Homo sapiens (Human), UniProt Q92918)
Experiment: HPK-1 biochemical enzyme assay (ADP-Glo kinase inhibition)
Details: recombinant full length HPK-1 6.8 nM, 10 μM ATP, 12.5 μM MBP, 30 mins at 25° C.
pIC50: −log10 of the molar value.
The reader will find reported pIC50 values listed item by item below.

Below: 3 molecules and their reported pIC50.
> print(dat)
                                   molecule  experimental.endpoint    data.value
1  Cc1c(Nc2cc[nH]c(=O)c2C(=O)Nc2ccc(N3CCC4(CC3)CC4)cc2)cnc2c1NCCO2                  pIC50  7.00 to 8.00
2  Cc1c(Nc2cc[nH]c(=O)c2C(=O)Nc2ccc(N3CCN(C(=O)c4ccnn4C)CC3)cc2)cnc2c1NCCO2                  pIC50  7.00 to 8.00
3  CCN1CCN(c2c(F)cc(NC(=O)c3c(Nc4cnc5c(c4C)NCCO5)cc[nH]c3=O)cc2Cl)CC1                  pIC50        ≥ 8.00

Incoming: Param request: pIC50 | system recombinant full length HPK-1 enzyme (Homo sapiens (Human), UniProt Q92918) | item Cc1c(Nc2cc[nH]c(=O)c2C(=O)Nc2ccc(N3CCN(S(C)(=O)=O)CC3)cc2)cnc2c1NCCO2
Outgoing: 7.00 to 8.00

Incoming: Param request: pIC50 | system recombinant full length HPK-1 enzyme (Homo sapiens (Human), UniProt Q92918) | item Cc1c(Nc2cc[nH]c(=O)c2C(=O)Nc2ccc(N3CCN(C)CC3)c(C#N)c2)cnc2c1NCC(C)O2 (stereo not drawn)
Outgoing: 7.00 to 8.00

Incoming: Param request: pIC50 | system recombinant full length HPK-1 enzyme (Homo sapiens (Human), UniProt Q92918) | item Cc1c(Nc2cc[nH]c(=O)c2C(=O)Nc2ccc(S(=O)(=O)NC3CC3)cc2)cnc2c1NCCO2
Outgoing: 7.00 to 8.00

Incoming: Param request: pIC50 | system recombinant full length HPK-1 enzyme (Homo sapiens (Human), UniProt Q92918) | item COCCN1CCN(c2ccc(NC(=O)c3c(Nc4cnc5c(c4C)NCCO5)cc[nH]c3=O)cc2)C[C@@H]1C
Outgoing: ≥ 8.00

Incoming: Param request: pIC50 | system recombinant full length HPK-1 enzyme (Homo sapiens (Human), UniProt Q92918) | item Cc1c(Nc2cc[nH]c(=O)c2C(=O)Nc2ccc(N3CCN(C)CC3)cc2)cnc2c1NCC1(CC1)O2
Outgoing: 7.00 to 8.00

Incoming: Param request: pIC50 | system recombinant full length HPK-1 enzyme (Homo sapiens (Human), UniProt Q92918) | item Cc1c(Nc2cc[nH]c(=O)c2C(=O)Nc2ccc(N3CCN(CC(C)(C)O)CC3)cc2)cnc2c1NCCO2
Outgoing: ≥ 8.00

Incoming: Param request: pIC50 | system recombinant full length HPK-1 enzyme (Homo sapiens (Human), UniProt Q92918) | item Cc1c(Nc2cc[nH]c(=O)c2C(=O)Nc2ccc(N3CCC(C(N)=O)CC3)cc2)cnc2c1NCCO2
Outgoing: ≥ 8.00

Incoming: Param request: pIC50 | system recombinant full length HPK-1 enzyme (Homo sapiens (Human), UniProt Q92918) | item Cc1c(Nc2cc[nH]c(=O)c2C(=O)Nc2ccc(N3CCN(C)CC3)cc2F)cnc2c1NCCO2
Outgoing: 7.00 to 8.00

Incoming: Param request: pIC50 | system recombinant full length HPK-1 enzyme (Homo sapiens (Human), UniProt Q92918) | item Cc1c(Nc2cc[nH]c(=O)c2C(=O)Nc2ccc(N3CCN(C(=O)[C@@H]4C[C@@H]4F)CC3)cc2)cnc2c1NCCO2
Outgoing: ≥ 8.00

Incoming: Param request: pIC50 | system recombinant full length HPK-1 enzyme (Homo sapiens (Human), UniProt Q92918) | item Cc1c(Nc2cc[nH]c(=O)c2C(=O)Nc2ccc(N3CCN(CC(C)O)CC3)cc2)cnc2c1NCCO2 (stereo not drawn)
Outgoing: ≥ 8.00

Incoming: Param request: pIC50 | system recombinant full length HPK-1 enzyme (Homo sapiens (Human), UniProt Q92918) | item Cc1c(Nc2cc[nH]c(=O)c2C(=O)Nc2ccc(-c3ccccn3)cc2)cnc2c1NCCO2
Outgoing: 7.00 to 8.00

Incoming: Param request: pIC50 | system recombinant full length HPK-1 enzyme (Homo sapiens (Human), UniProt Q92918) | item Cc1c(Nc2cc[nH]c(=O)c2C(=O)Nc2ccc(N3CCN(C4CCN(C)CC4)CC3)cc2)cnc2c1NCCO2
Outgoing: ≥ 8.00

====

The reader will find reported IC50 values listed item by item below.
Target: recombinant full length HPK-1 enzyme (Homo sapiens (Human))
Assay: HPK-1 biochemical enzyme assay (ADP-Glo kinase inhibition)
Settings: recombinant full length HPK-1 6.8 nM, 10 μM ATP, 12.5 μM MBP, 30 mins at 25° C.

Below: 6 compounds and their reported IC50.
> print(dat)
                                   compound  experimental.endpoint    data.value
1  CCN1CCN(c2ccc(NC(=O)c3c(Nc4cnc5c(c4C)NCC(C)O5)cc[nH]c3=O)cc2F)CC1 (stereo not shown) [Example 386]                   IC50       ≤ 10 nM
2  Cc1c(Nc2cc[nH]c(=O)c2C(=O)Nc2ccc3c(c2)CCCN3)cnc2c1NCCO2                   IC50  10 to 100 nM
3  Cc1c(Nc2cc[nH]c(=O)c2C(=O)Nc2ccc(N3CCN(C(C)C)CC3)cc2)cnc2c1NCC(C)O2 (stereo not shown) [Example 405]                   IC50  10 to 100 nM
4  Cc1c(Nc2cc[nH]c(=O)c2C(=O)Nc2ccc(N3CCN(C(C)c4ccn[nH]4)CC3)cc2)cnc2c1NCCO2 (stereo not shown)                   IC50       ≤ 10 nM
5  Cc1c(Nc2cc[nH]c(=O)c2C(=O)Nc2ccc(N3CCN(c4nccn4C)CC3)cc2)cnc2c1NCCO2                   IC50       ≤ 10 nM
6  Cc1c(Nc2cc[nH]c(=O)c2C(=O)Nc2ccc(N3CCN(CCC4CNC4)CC3)cc2)cnc2c1NCCO2                   IC50       ≤ 10 nM

Please examine the following record next.
Incoming: Quickly give me recorded IC50 for Cc1c(Nc2cc[nH]c(=O)c2C(=O)Nc2ccc(N3CCN(C)CC3)c(C(=O)N(C)C)c2)cnc2c1NCCO2
Outgoing: 100 to 1000 nM
